The measured values listed here are drawn from patent US20180258175A1.

Subject of test: T1, human CD115 extracellular domain (Sino Biological 10161-H08H) (human, UniProt P07333 20-517)
T1 construct: extracellular domain; bought recombinant protein; also called huCD115; hu-CD115
Method summary: competition ELISA, competitor TMR 95A;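 further: clonal anti-huCD115 hybridoma supernatants tested for binding while a competitor mouse antibody is present, where failure to bind assigns them to that competitor's epitope bin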;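 further: low signal means same epitope bin as the mouse competitor antibody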
Parameter: signal vs NO COMP=100

| Binder | signal vs NO COMP=100 |
| --- | --- |
| CCK-421A (antibody, V domains shown, AlivaMab chimeric IgG, human kappa LC) VH: QVQLQESGPGLVKPSETLSLTCTVTGGSISSYYWSWIRQPAGKGLEWIGRIYTSGSTNYNPSLKSRVTMSVDTSKNHFSLKLSSVTAADTAVYYCAREILVVVAATRTGGVFDIWGQGTMVTVSS VL: DIQMTQSPSTLSASVGDRVTITCRASQSISSWLAWYQRKPGKAPKLLIYKASTLESGVPSRFSGSGSGTEFTLTISSLQPDDFATYYCQQFNSYWTFGQGTKVEIK | 9% |
| 429 (Table 4, bin 1C block) (antibody, V domains shown, not tied) VH: QVQLEQSGAEVKRPGASVKVSCKASGYTFTGYYMHWVRQAPGQGLEWMGWINPNRGDTNYAQKFQGRVTMTRDTSISTAYMELSRLRSDDTAVYYCARDLEGGGPFDYWGQGTLVTVSS VL: DIVMTQTPLSLPVTPGEPASISCRSSQSLLDSDDGNTYLDWYLQKPGQSPQLLIYTLSYRASGVPDRFSGSGSGTDFTLKISRVEAEDVGVYYCMQRIEFPSTFGQGTRLEIK | 38% |

Look up signal vs NO COMP=100 for this binder: CCK-541A (antibody, V domains shown, AlivaMab chimeric IgG, human kappa LC) VH: QVQLQESGPGLVKPSETLSLTCTVSGASISTYFWSWLRQPPGKGLEWIGYIFYSGSINYNPSLKSRVTISVDTSKNQFSLELSSVTAADTAVYYCARDRTFYGMDVWGQGTTVTVSS VL: EIVLTQSPGTLSLPPGERATLSCRASQNVSSTYLAWYHQKPGQAPRLLIYGASSRATGIPDRFSGSGSGTDFTLTISRLEPEDFAVYYCQQYGSSPRTFGQGTKVEIK 42%
